# STUDY_TARGET: T1, human Trop-2-His protein (human, UniProt P09758 27-274)
# T1 construct: extracellular domain; Assay paragraphs say only 'Trop-2-His'; also called hTrop-2; Kactus Cat #TRP-HM121; not shown: His tag
# T1 sequence (looked up): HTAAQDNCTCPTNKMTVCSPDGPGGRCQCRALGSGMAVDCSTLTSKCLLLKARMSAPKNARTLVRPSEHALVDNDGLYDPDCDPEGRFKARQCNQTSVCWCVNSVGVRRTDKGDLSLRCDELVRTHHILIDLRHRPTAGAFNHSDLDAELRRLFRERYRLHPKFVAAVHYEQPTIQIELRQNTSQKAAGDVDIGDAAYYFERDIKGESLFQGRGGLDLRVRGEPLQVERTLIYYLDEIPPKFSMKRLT
# METHOD_NOTES: ELISA, coated Trop-2 protein
# Description: Purified antibodies were tested by ELISA to confirm their binding and affinity against human and cynomolgus Trop-2-His protein. […] After addition of 50 μl/well of stop solution (1N H₂SO₄), plates were read at 450 nm on a plate reader (SpectraMax M5). EC₅₀ values were calculated using Graphpad Prism. […]
MEASURE: EC50 (pM)
Field: numeric (pM). Do not append units.

BINDER | VALUE_OBSERVED
72F12 (antibody, V domains shown, Rabbit-derived clone; LEM construct: VH + rabbit IgG CH1 + human IgG1 CH2-CH3) VH: QEQLKESGGGLVQPGGSLKLSCKASGFDFNNYGVSWVRQAPGKGLEWIAYIYPAFHNTYYATWVNGRFTISSHNAQNTLYLQLNSLTAADTATYFCARDAGSVDYNFNLWGPGTLVTVSS VL: DVVMTQTPASVEVAVGGTVTIKCQASKNIDSNLAWYQQKPGQPPKQLIYAASTLASGVSSRFSGSGYGAEFTLTISGVECADAATYYCQQALTIGNVDNPFGGGSEVVVK | 13
5D4-2 (antibody, V domains shown) VH: QQLEESGGGLVKPEGSLTLTCKGSGFDFSGTYWMWWVRQAPGKGLEWIASIYVGSGSSTYYASWAKGRFTISSTSSTAVTLQATSLTAADTATYFCARGATNNVFMNYFNLWGPGTLVTVSS VL: FEMTQTPSSVSEPVGGTVTIKCQASEDISSNLGWYQQKPGQPPKLLIYGASTLASGVPSRFKGSGSGTEFTLTISDLEAADAATYYCQTSYYIDDGVNGFGGGTEVVVK | 15

Request: What measured EC50 goes with 10A9 (antibody, V domains shown, Rabbit-derived clone; LEM construct: VH + rabbit IgG CH1 + human IgG1 CH2-CH3) VH: QSLEESGGDLVQPGASLTLTCKASGFDLNNYAMLWVRQAPGKGLEWIGCIYISGGTTYFASWATGRFAISKTSSTTVTLQMTSLTAADTATYFCARDDGTTSYYLNLWGPGTLVTVSS VL: YDMTQTPASVSAAVGGTVTIKCQASEDIYSLLAWYQQKPGQPPKLLIYGASNLESGVPSRFKGSGSGTEYTLTISDLECDDAATYYCQQAYTIGNIDNAFGGGTEVVVK ?
Response: 17
